# System: Cell membrane
# Experiment Notes: Disruption of cell membrane integrity in human MCF7 cells assessed as increase in PI fluorescence at 2 times IC50 measured after 0 to 120 mins by laser confocal scanning microscopic analysis
# Assay type: cell membranes
# Cond: time 0-120 min
Active and inactive are the calls of the source. The calls are words filed in the database; no cut-off is given here. Non-standard residues stand in square brackets, D forms with d. Residues, ends and D or L forms follow the SMILES beside them. Aad = N[C@@H](CCCC(=O)O)C(=O)O
Outcomes: TRUE (active), FALSE (inactive)

* CC(C)C[C@H](NC(=O)[C@H](CCCCN)NC(=O)[C@H](CCCCN)NC(=O)[C@H](CC(C)C)NC(=O)[C@H](CC(C)C)NC(=O)[C@H](CCCCN)NC(=O)[C@H](CCCCN)NC(=O)[C@H](CC(C)C)NC(=O)[C@H](CC(C)C)NC(=O)[C@H](CCCCN)NC(=O)[C@H](CCCCN)NC(=O)[C@H](CC(C)C)NC(=O)[C@@H](N)CC(C)C)C(=O)N[C@@H](CCC(=O)O)C(N)=O (H-LLKKLLKKLLKKLE-NH2) | TRUE
* CC(C)C[C@H](NC(=O)[C@H](CC(C)C)NC(=O)[C@H](CCCCN)NC(=O)[C@H](CCCCN)NC(=O)[C@H](CC(C)C)NC(=O)[C@H](CC(C)C)NC(=O)[C@H](CCCCN)NC(=O)[C@H](CCCCN)NC(=O)[C@H](CC(C)C)NC(=O)[C@H](CC(C)C)NC(=O)[C@H](CCCCN)NC(=O)[C@H](CCCCN)NC(=O)[C@H](CC(C)C)NC(=O)[C@@H](N)CC(C)C)C(N)=O (H-LLKKLLKKLLKKLL-NH2) | TRUE
* CC(C)C[C@H](NC(=O)[C@H](CCCCN)NC(=O)[C@H](CCCCN)NC(=O)[C@H](CC(C)C)NC(=O)[C@H](CC(C)C)NC(=O)[C@H](CCCCN)NC(=O)[C@H](CCCCN)NC(=O)[C@H](CC(C)C)NC(=O)[C@H](CC(C)C)NC(=O)[C@H](CCCCN)NC(=O)[C@H](CCCCN)NC(=O)[C@H](CC(C)C)NC(=O)[C@@H](N)CC(C)C)C(=O)N[C@@H](CCCC(=O)O)C(N)=O (H-LLKKLLKKLLKKL[Aad]-NH2) | TRUE
* CC(=O)O[C@H]1C(=O)[C@@]2(C)[C@H]([C@H](OC(=O)c3ccccc3)[C@]3(O)C[C@H](OC(=O)[C@H](O)[C@@H](NC(=O)c4ccccc4)c4ccccc4)C(C)=C1C3(C)C)[C@]1(OC(C)=O)CO[C@@H]1C[C@@H]2O [PACLITAXEL] | FALSE
